Biological target: KOR (Homo sapiens)
Sequence (P41145 whole entry): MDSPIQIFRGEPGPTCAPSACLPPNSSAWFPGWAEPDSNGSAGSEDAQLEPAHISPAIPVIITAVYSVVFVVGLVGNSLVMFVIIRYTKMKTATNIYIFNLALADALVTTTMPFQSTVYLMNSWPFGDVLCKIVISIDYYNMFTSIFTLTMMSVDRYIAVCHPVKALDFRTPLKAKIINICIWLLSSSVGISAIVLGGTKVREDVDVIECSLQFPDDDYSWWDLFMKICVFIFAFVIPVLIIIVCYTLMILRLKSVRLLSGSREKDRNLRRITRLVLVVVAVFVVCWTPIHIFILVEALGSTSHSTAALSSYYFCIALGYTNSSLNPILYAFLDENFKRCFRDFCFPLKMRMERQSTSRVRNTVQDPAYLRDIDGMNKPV
Experiment: cell-based
Parameters: expressed in transfected cells; host or cells: HEK 293T (ATCC CRL-11268)
quantity: pEC50
The quantity pEC50 is defined as the negative base-10 logarithm of the molar concentration.

Record COC(=O)N1CCN(C(=O)Cc2ccc(Cl)c(Cl)c2)[C@@H]2[C@@H](N3CC[C@H](O)C3)CCC[C@@H]21 (mixture of isomers) [12c] , field pEC50: 9.72

---

Target: UniProt:P33533
Sequence (P33533 whole entry): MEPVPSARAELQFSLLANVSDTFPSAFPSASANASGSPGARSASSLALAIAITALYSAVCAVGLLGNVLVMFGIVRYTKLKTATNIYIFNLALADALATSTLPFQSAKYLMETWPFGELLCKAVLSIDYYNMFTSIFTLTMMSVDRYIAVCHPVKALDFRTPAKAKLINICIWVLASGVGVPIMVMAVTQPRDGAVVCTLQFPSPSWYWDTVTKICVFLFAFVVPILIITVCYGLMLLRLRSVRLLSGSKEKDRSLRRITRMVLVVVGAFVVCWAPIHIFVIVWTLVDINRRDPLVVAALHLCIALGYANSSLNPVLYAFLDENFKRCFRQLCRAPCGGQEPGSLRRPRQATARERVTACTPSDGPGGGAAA
quantity: pKi
Would you please state pKi, meaning minus log10 of the concentration in mol/L, as a bare number?

pKi value, target or system UniProt:P33533, for COC(=O)N1CCN(C(=O)Cc2ccc(Cl)c(Cl)c2)[C@@H]2[C@@H](N3CC[C@H](O)C3)CCC[C@@H]21 (mixture of isomers) [12c] : 6.16
